experiment: qHTS RealTime-Glo MT Cell Viability Assay in HepG2 cells - 32 hour (AID 1224877); details: RealTime-Glo luminescence; series mostly up to 76.8 µM; note: nearly all actives have a fitted effect of over 55% in size
Records with an inconclusive call do not appear. Activity calls are given as the source filed them. Calls come from the whole dose curve; as a rule, active = well fitted cell-killing curve with a large enough effect in the repeat runs; inconclusive = weak or mixed curves; inactive = flat fitted curve, though single readings scatter.
Please answer using one outcome listed in active, inactive

Input: I'd appreciate the recorded outcome for [Cl-].[Cl-].[Cl-].[Yb+3] from this test.
Output: inactive

Input: I'd appreciate the recorded outcome for COCCC#N from this test.
Output: inactive

Input: I'd appreciate the recorded outcome for CCCCCON=O from this test.
Output: inactive

Input: I'd appreciate the recorded outcome for ClC1(Cl)C2(Cl)C3(Cl)C4(Cl)C(Cl)(Cl)C5(Cl)C3(Cl)C1(Cl)C5(Cl)C24Cl (configuration not stated) from this test.
Output: inactive

Input: I'd appreciate the recorded outcome for Nc1cc(Cl)ccc1Cl from this test.
Output: inactive

Input: I'd appreciate the recorded outcome for N#Cc1sc2c(=O)c3ccccc3c(=O)c=2sc1C#N from this test.
Output: active

Input: I'd appreciate the recorded outcome for CCOC(=O)Cc1ccccc1 from this test.
Output: inactive

Input: I'd appreciate the recorded outcome for CNC(C)(C)Cc1ccccc1 from this test.
Output: inactive

Input: I'd appreciate the recorded outcome for CCCCN(CCCC)C(=S)[S-].CCCCN(CCCC)C(=S)[S-].[Ni+2] from this test.
Output: inactive

Input: I'd appreciate the recorded outcome for CCO/N=C(\CC)C1=C(O)CC(c2c(C)cc(C)cc2C)CC1=O (configuration not stated) from this test.
Output: inactive

Input: I'd appreciate the recorded outcome for c1csc(-c2ccc(-c3cccs3)s2)c1 from this test.
Output: inactive

Input: I'd appreciate the recorded outcome for NC1CCC(CC2CCC(N)CC2)CC1 (configuration not stated) from this test.
Output: inactive

Input: I'd appreciate the recorded outcome for Cc1cnc2c(C(=O)O)c(Cl)ccc2c1 from this test.
Output: inactive

Input: I'd appreciate the recorded outcome for C=CCBr from this test.
Output: inactive

Input: I'd appreciate the recorded outcome for CSSC from this test.
Output: inactive

Input: I'd appreciate the recorded outcome for COc1nc(C)nc(NC(=O)NS(=O)(=O)c2ccccc2Cl)n1 from this test.
Output: inactive

Input: I'd appreciate the recorded outcome for N#CCCl from this test.
Output: inactive

* * *

assay: qHTS assay for small molecules that induce genotoxicity in human embryonic kidney cells expressing luciferase-tagged ATAD5 - cell viability (AID 651634); details: HEK293T ATAD5-luc cells viability, CellTiter-Fluor, 15.5 h; series mostly up to 83.3 µM; note: nearly all actives have a fitted effect of over 25% in size
Inconclusive results are not listed. Activity calls are given as the source filed them. Calls follow the shape of the full dose curve.
Please answer using one outcome listed in active, inactive

Input: I'd appreciate the recorded outcome for CC(O)C(=O)[O][Hg][c]1ccccc1 (stereo not given) from this test.
Output: active

Input: I'd appreciate the recorded outcome for O=[N+]([O-])[O-].[Tl+] from this test.
Output: inactive

Input: I'd appreciate the recorded outcome for COc1nc(C)nc(NC(=O)NS(=O)(=O)c2ccccc2Cl)n1 from this test.
Output: inactive

Input: I'd appreciate the recorded outcome for CC(C)c1c(CN(C)C(C)Cc2ccccc2)n(C)n(-c2ccccc2)c1=O (stereo not given) from this test.
Output: inactive

Input: I'd appreciate the recorded outcome for CC(Cc1ccc(O)cc1)NCC(O)c1cc(O)cc(O)c1 (stereo not given) from this test.
Output: inactive

* * *

assay: qHTS assay to identify small molecule agonists of the estrogen receptor alpha (ER-alpha) signaling pathway in the presence of an antagonist - cell viability counter screen (AID 1259386); conditions: VM7Luc4E2 viability, CellTiter-Fluor fluorescence, 22 h; series mostly up to 92.4 µM;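 note: cells exposed to compounds for 22 h at 37 °C before the viability read; nearly all actives have a fitted effect of over 30% in size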
Results filed as inconclusive are left out. The source made the active and inactive calls. The call rests on the fitted dose curve; in most records, active means well fitted cell-killing curve with a large enough effect in the repeat runs; inconclusive means weak or mixed curves, or effect the other way; inactive means no such curve, though single readings can be large or run the other way.
Please answer using one outcome listed in active, inactive

Input: I'd appreciate the recorded outcome for COc1ccc(Cc2nccc3cc(OC)c(OC)cc23)cc1OC from this test.
Output: active

Input: I'd appreciate the recorded outcome for CC(C)N(C(=O)SC/C(Cl)=C/Cl)C(C)C from this test.
Output: inactive

Input: I'd appreciate the recorded outcome for Nc1nc(N)nc(Cl)n1 from this test.
Output: inactive

Input: I'd appreciate the recorded outcome for O=[N+]([O-])C(Br)Br from this test.
Output: inactive

Input: I'd appreciate the recorded outcome for Oc1cc(Cl)cc(Cl)c1 from this test.
Output: inactive

Input: I'd appreciate the recorded outcome for C=CCOC(=O)c1ccccc1N from this test.
Output: inactive

* * *

experiment: qHTS RealTime-Glo MT Cell Viability Assay in HEK293 cells - 32 hour (AID 1224868); conditions: RealTime-Glo luminescence; series mostly up to 76.8 µM; note: nearly all actives have a fitted effect of over 50% in size
Inconclusive results are not listed. Activity calls are given as the source filed them. The call rests on the fitted dose curve; in most records, active means well fitted cell-killing curve with a large enough effect in the repeat runs; inconclusive means weak or mixed curves, or effect the other way; inactive means flat fitted curve, though single readings scatter.
Please answer using one outcome listed in active, inactive

Input: I'd appreciate the recorded outcome for O=S1(=O)OCC2C(CO1)C1(Cl)C(Cl)=C(Cl)C2(Cl)C1(Cl)Cl (stereo not drawn) from this test.
Output: active

Input: I'd appreciate the recorded outcome for CCOP(=O)(OCC)Oc1cc(C)nc(C(C)C)n1 from this test.
Output: inactive

Input: I'd appreciate the recorded outcome for Oc1cc(Cl)c(Cl)c(Cl)c1Cl from this test.
Output: active

Input: I'd appreciate the recorded outcome for [Cl][Hg][c]1ccccc1 from this test.
Output: active

Input: I'd appreciate the recorded outcome for CSC(=O)c1c(C(F)F)nc(C(F)(F)F)c(C(=O)SC)c1CC(C)C from this test.
Output: inactive

Input: I'd appreciate the recorded outcome for Cc1ccn2nc(S(=O)(=O)Nc3c(F)cccc3F)nc2n1 from this test.
Output: inactive

Input: I'd appreciate the recorded outcome for O=c1c2ccccc2c(=O)c2c1cc(Cl)c1[nH]c3c([nH]c12)c(Cl)cc1c(=O)c2ccccc2c(=O)c13 from this test.
Output: inactive

Input: I'd appreciate the recorded outcome for S=C=NCCc1ccccc1 from this test.
Output: active

* * *

assay: qHTS assay for small molecule activators of the heat shock response signaling pathway - cell viability counter screen (AID 743209); details: HSE-bla HeLa viability, CellTiter-Glo luminescence, 5 h; series mostly up to 62.6 µM; note: nearly all actives have a fitted effect of over 50% in size
Results filed as inconclusive are left out. Activity calls are given as the source filed them. Calls come from the whole dose curve; as a rule, active = well fitted cell-killing curve with a large enough effect in the repeat runs; inconclusive = weak or mixed curves, or effect the other way; inactive = no such curve, though single readings can be large or run the other way.
Please answer using one outcome listed in 1 (yes) = active, 0 (no) = inactive

Input: I'd appreciate the recorded outcome for c1ccc(Nc2ccc(Nc3ccccc3)cc2)cc1 from this test.
Output: 1 (yes)

Input: I'd appreciate the recorded outcome for C[N+]1(C)[C@@H]2CC[C@H]1CC(OC(=O)C(CO)c1ccccc1)C2 (stereo partly drawn) from this test.
Output: 0 (no)

Input: I'd appreciate the recorded outcome for CC1CN1 (stereo not drawn) from this test.
Output: 0 (no)

Input: I'd appreciate the recorded outcome for CC(C)NCC(O)c1ccccc1Cl (stereo not drawn) from this test.
Output: 0 (no)

Input: I'd appreciate the recorded outcome for Nc1ccc(Cl)cc1C(=O)c1ccccc1F from this test.
Output: 0 (no)

Input: I'd appreciate the recorded outcome for CC(=O)[O-].CC(=O)[O-].[Co+2] from this test.
Output: 0 (no)

Input: I'd appreciate the recorded outcome for CSSC from this test.
Output: 0 (no)

Input: I'd appreciate the recorded outcome for CCCCN(CCCC)C(=S)S from this test.
Output: 0 (no)

Input: I'd appreciate the recorded outcome for Clc1cc(Cl)c(-c2cc(Cl)c(Cl)cc2Cl)cc1Cl from this test.
Output: 0 (no)

Input: I'd appreciate the recorded outcome for C=CCOC(=O)c1ccccc1N from this test.
Output: 0 (no)

Input: I'd appreciate the recorded outcome for CCC(C)c1cccc(C(C)CC)c1O (stereo not drawn) from this test.
Output: 0 (no)

Input: I'd appreciate the recorded outcome for NC1CCC(CC2CCC(N)CC2)CC1 (stereo not drawn) from this test.
Output: 0 (no)

Input: I'd appreciate the recorded outcome for CCN1CCC2(CC1)COc1cc3c(cc12)N(C(=O)c1ccc(-c2ccc(-c4nnc(C)o4)cc2C)cc1)CC3 from this test.
Output: 1 (yes)

Input: I'd appreciate the recorded outcome for Cc1cc2c3c(c1)C(c1ccccc1)=N[C@@H](NC(=O)c1ccncc1)C(=O)N3CC2 from this test.
Output: 0 (no)

Input: I'd appreciate the recorded outcome for Nc1nc(N)c(N)c(N)n1 from this test.
Output: 0 (no)

Input: I'd appreciate the recorded outcome for COc1ccc2c(c1OC)C(=O)O[C@@H]2[C@H]1c2cc3c(cc2CCN1C)OCO3 from this test.
Output: 0 (no)

Input: I'd appreciate the recorded outcome for CCCN from this test.
Output: 0 (no)

Input: I'd appreciate the recorded outcome for ClC(Cl)C(Cl)(Cl)Cl from this test.
Output: 0 (no)

Input: I'd appreciate the recorded outcome for Cc1cnc2c(C(=O)O)c(Cl)ccc2c1 from this test.
Output: 0 (no)

Input: I'd appreciate the recorded outcome for CC(C)=CCN1CC[C@@]2(C)c3cc(O)ccc3C[C@@H]1[C@@H]2C from this test.
Output: 0 (no)

Input: I'd appreciate the recorded outcome for O=P(Cl)(Cl)Cl from this test.
Output: 0 (no)

Input: I'd appreciate the recorded outcome for ClSC(Cl)(Cl)Cl from this test.
Output: 0 (no)

Input: I'd appreciate the recorded outcome for CC(C)C(Nc1ccc(C(F)(F)F)cc1Cl)C(=O)OC(C#N)c1cccc(Oc2ccccc2)c1 (stereo not drawn) from this test.
Output: 0 (no)
